settings: mouse, in vivo, sc, 50 mg/kg
e = 2'-O-(2-methoxyethyl) (MOE); d = 2'-deoxy (DNA)
Kindly state log10(AST) for each of the entries shown.
On a log10 scale: recorded AST, unit IU/L.

Task: Entry ISIS 445503: 5-8-5 or 6-8-6 MOE microwalk gapmer (Table 44) (antisense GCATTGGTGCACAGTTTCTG; sugars from the 5' end e6 d8 e6, backbone and methylation of C not given here) : reported log10(AST) = ?
Result: 2.93

Task: Let us now turn to ISIS 445513: 5-8-5 or 6-8-6 MOE microwalk gapmer (Table 44) (antisense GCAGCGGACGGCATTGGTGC; sugars from the 5' end e6 d8 e6, backbone and methylation of C not given here)
Result: 1.92

Task: Let us now turn to ISIS 445505: 5-8-5 or 6-8-6 MOE microwalk gapmer (Table 44) (antisense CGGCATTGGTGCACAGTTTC; sugars from the 5' end e6 d8 e6, backbone and methylation of C not given here)
Result: 2.18

Task: Let us now turn to ISIS 445504: 5-8-5 or 6-8-6 MOE microwalk gapmer (Table 44) (antisense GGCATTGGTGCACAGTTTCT; sugars from the 5' end e6 d8 e6, backbone and methylation of C not given here)
Result: 2.03

Task: Let us now turn to ISIS 445498: 5-8-5 or 6-8-6 MOE microwalk gapmer (Table 44) (antisense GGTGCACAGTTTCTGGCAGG; sugars from the 5' end e6 d8 e6, backbone and methylation of C not given here)
Result: 2.01

Task: Let us now turn to ISIS 445509: 5-8-5 or 6-8-6 MOE microwalk gapmer (Table 44) (antisense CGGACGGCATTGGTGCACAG; sugars from the 5' end e6 d8 e6, backbone and methylation of C not given here)
Result: 2.07

Task: Let us now turn to ISIS 445530: 5-8-5 or 6-8-6 MOE microwalk gapmer (Table 44) (antisense GCATTGGTGCACAGTTTC; sugars from the 5' end e5 d8 e5, backbone and methylation of C not given here)
Result: 2.13

Task: Let us now turn to ISIS 445532: 5-8-5 or 6-8-6 MOE microwalk gapmer (Table 44) (antisense CGGCATTGGTGCACAGTT; sugars from the 5' end e5 d8 e5, backbone and methylation of C not given here)
Result: 2.56

----------
test: Liver function, ALT, AST, bilirubin in cynomolgus monkeys (Example 45); assay type: in vivo; conditions: plasma; day 64; escalating dose regimen
MEASURED PROPERTY: Bilirubin (mg/dL)
The figure you give is taken to be in mg/dL; do not add the unit.

Task: Entry ISIS 416850: MOE gapmer, nucleobases 1275 to 1318 of SEQ ID NO: 1 (Table 8) (antisense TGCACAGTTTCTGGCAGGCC; MOE gapmer, wing and gap sizes not given here) : reported Bilirubin = ?
Result: 0.14

Task: Let us now turn to ISIS 416838: MOE gapmer, nucleobases 1018 to 1042 of SEQ ID NO: 1 (Table 6) (antisense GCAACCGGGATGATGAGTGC; MOE gapmer, wing and gap sizes not given here)
Result: 0.15

----------
experiment: Body and organ weights of cynomolgus monkeys (Example 46); format: in vivo; details: day 36
Strand notation (5' to 3'): a small letter for the sugar, then the base; units joined by * are phosphorothioate-linked, units joined directly phosphodiester-linked; [ ] holds rarer units or linkages, { } end groups; capitals alone tell only the bases. e = 2'-O-(2-methoxyethyl) (MOE); [5mC] = 5-methylcytosine; d = 2'-deoxy (DNA)
Kindly state body weight for each of the entries shown.
The figure you give is taken to be in g; do not add the unit.

Task: Entry ISIS 445522: 5-8-5 or 6-8-6 MOE microwalk gapmer (Table 44) (antisense eG*e[5mC]*eA*e[5mC]*eA*dG*dT*dT*dT*d[5mC]*dT*dG*dG*e[5mC]*eA*eG*eG*e[5mC]) : reported body weight = ?
Result: 2121

Task: Let us now turn to ISIS 445531: 5-8-5 or 6-8-6 MOE microwalk gapmer (Table 44) (antisense eG*eG*e[5mC]*eA*eT*dT*dG*dG*dT*dG*d[5mC]*dA*d[5mC]*eA*eG*eT*eT*eT)
Result: 2191

Task: Let us now turn to ISIS 449708: 3-8-3, 4-8-4, 2-10-2, 3-10-3 or 4-10-4 MOE microwalk gapmer (Table 46) (antisense eA*e[5mC]*eA*dG*dT*dT*dT*d[5mC]*dT*dG*dG*e[5mC]*eA*eG)
Result: 2100

Task: Let us now turn to ISIS 449710: 3-8-3, 4-8-4, 2-10-2, 3-10-3 or 4-10-4 MOE microwalk gapmer (Table 46) (antisense e[5mC]*eA*e[5mC]*dA*dG*dT*dT*dT*d[5mC]*dT*dG*dG*d[5mC]*eA*eG*eG)
Result: 2180

Task: Let us now turn to ISIS 416858: MOE gapmer, nucleobases 1275 to 1318 of SEQ ID NO: 1 (Table 8) (antisense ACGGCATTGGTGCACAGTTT; MOE gapmer, wing and gap sizes not given here)
Result: 2210

----------
test system: human Factor 11 mRNA; test: Dose-dependent inhibition of human Factor 11 in HepB3 cells, electroporation (Example 7); assay type: cell-based; conditions: 10000 nM, ~16 hours
Assign class by percent inhibition of human Factor 11 mRNA relative to untreated control cells: not lower than 90% means Met; lower than 90% means Not met.

Task: Evaluate 416999 (antisense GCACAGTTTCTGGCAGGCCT; 2-13-5 gapmer chemistry, further chemistry not given here) [compound 416999] : percent inhibition of human Factor 11 mRNA relative to untreated control cells at minimum 90%?
Result: Met

Task: Let us now turn to 416925 (antisense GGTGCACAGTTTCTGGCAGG; 3-14-3 gapmer chemistry, further chemistry not given here) [compound 416925]
Result: Met

Task: Let us now turn to 416864 (antisense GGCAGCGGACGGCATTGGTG; 5-10-5 gapmer, further chemistry not given here) [compound 416864]
Result: Not met

Task: Let us now turn to 416892 (antisense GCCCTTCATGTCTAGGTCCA; 3-14-3 chimeric gapmer, further chemistry not given here) [compound 416892]
Result: Met

Task: Let us now turn to 417002 (antisense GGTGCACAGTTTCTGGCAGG; 2-13-5 gapmer chemistry, further chemistry not given here) [compound 417002]
Result: Met

Task: Let us now turn to 416850 (antisense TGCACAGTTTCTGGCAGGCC; 5-10-5 gapmer, further chemistry not given here) [compound 416850]
Result: Met

----------
Kindly state percent inhibition of Factor 11 at 2.2 μM for each of the entries shown.
system: human Factor 11 mRNA; test: Dose-dependent inhibition of human Factor 11 in HepG2 cells, electroporation 0.7-20 uM (Example 4); assay type: cell-based; settings: 2.2 μM, relative to untreated control cells
Strand notation (5' to 3'): a small letter for the sugar, then the base; units joined by * are phosphorothioate-linked, units joined directly phosphodiester-linked; [ ] holds rarer units or linkages, { } end groups; capitals alone tell only the bases. e = 2'-O-(2-methoxyethyl) (MOE); [5mC] = 5-methylcytosine; d = 2'-deoxy (DNA)
The figure you give is taken to be in %; do not add the unit.

Task: Entry 416945 (antisense eA*eA*dT*dG*dT*d[5mC]*dT*dT*dT*dG*dT*dT*dG*d[5mC]*dA*eA*eG*e[5mC]*eG*e[5mC]) [compound 416945] : reported percent inhibition of Factor 11 at 2.2 μM = ?
Result: 70

Task: Let us now turn to 412206 (antisense e[5mC]*e[5mC]*eG*eT*eG*d[5mC]*dA*dT*d[5mC]*dT*dT*dT*d[5mC]*dT*dT*eG*eG*e[5mC]*eA*eT) [compound 412206]
Result: 39

Task: Let us now turn to 416993 (antisense e[5mC]*eT*dT*dT*dG*dA*dG*dA*dT*dT*d[5mC]*dT*dT*dT*dG*eG*eG*e[5mC]*e[5mC]*eA) [compound 416993]
Result: 48

Task: Let us now turn to 416923 (antisense eT*eG*e[5mC]*dA*d[5mC]*dA*dG*dT*dT*dT*d[5mC]*dT*dG*dG*d[5mC]*dA*dG*eG*e[5mC]*e[5mC]) [compound 416923]
Result: 30

Task: Let us now turn to 416864 (antisense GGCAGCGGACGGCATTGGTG; 5-10-5 gapmer, further chemistry not given here) [compound 416864]
Result: 65

Task: Let us now turn to 416941 (antisense eG*eG*e[5mC]*dA*dG*d[5mC]*dG*dG*dA*d[5mC]*dG*dG*d[5mC]*dA*dT*dT*dG*eG*eT*eG) [compound 416941]
Result: 38

Task: Let us now turn to 417002 (antisense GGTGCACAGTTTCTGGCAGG; 2-13-5 gapmer chemistry, further chemistry not given here) [compound 417002]
Result: 38

Task: Let us now turn to 416989 (antisense eG*eA*dG*dA*dT*dT*d[5mC]*dT*dT*dT*dG*dG*dG*d[5mC]*d[5mC]*eA*eT*eT*e[5mC]*e[5mC]) [compound 416989]
Result: 65

Task: Let us now turn to 416969 (antisense eG*e[5mC]*d[5mC]*d[5mC]*dT*dT*d[5mC]*dA*dT*dG*dT*d[5mC]*dT*dA*dG*eG*eT*e[5mC]*e[5mC]*eA) [compound 416969]
Result: 34

Task: Let us now turn to 416842 (antisense eT*eG*eA*eG*eA*dT*dT*d[5mC]*dT*dT*dT*dG*dG*dG*d[5mC]*e[5mC]*eA*eT*eT*e[5mC]) [compound 416842]
Result: 10

Task: Let us now turn to 416924 (antisense eG*eT*eG*d[5mC]*dA*d[5mC]*dA*dG*dT*dT*dT*d[5mC]*dT*dG*dG*d[5mC]*dA*eG*eG*e[5mC]) [compound 416924]
Result: 40
